B1: glmS ribozyme (parent)
chain: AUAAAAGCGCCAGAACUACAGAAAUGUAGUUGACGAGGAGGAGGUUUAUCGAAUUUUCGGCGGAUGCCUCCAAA

# Variants of: B1
# procedure details: KM; higher = weaker cofactor use; RNA array
# condition description: with glucosamine-6-phosphate
Quick rule: KM of at least 2000 µM means criterion met, below that means criterion not met.

*Q* Is KM at least 2000 µM? Consider G40A C70A
*A* criterion not met

*Q* Is KM at least 2000 µM? Consider A15U G29C
*A* criterion met

*Q* Is KM at least 2000 µM? Consider C11U A15C
*A* criterion met

*Q* Is KM at least 2000 µM? Consider G13U U56G
*A* criterion met

*Q* Is KM at least 2000 µM? Consider A15G U46A
*A* criterion not met

*Q* Is KM at least 2000 µM? Consider U54C C58G
*A* criterion met

*Q* Is KM at least 2000 µM? Consider G13C A14U
*A* criterion met

*Q* Is KM at least 2000 µM? Consider U47C G66A
*A* criterion not met

*Q* Is KM at least 2000 µM? Consider A6G A14G
*A* criterion met

*Q* Is KM at least 2000 µM? Consider A6U A53U
*A* criterion met

*Q* Is KM at least 2000 µM? Consider A39U U47C
*A* criterion not met

*Q* Is KM at least 2000 µM? Consider A39U
*A* criterion met

*Q* Is KM at least 2000 µM? Consider A14U U54C C67U
*A* criterion not met

*Q* Is KM at least 2000 µM? Consider C11U C67G
*A* criterion not met

*Q* Is KM at least 2000 µM? Consider G37A G40A
*A* criterion met

*Q* Is KM at least 2000 µM? Consider A14G G66U
*A* criterion met

*Q* Is KM at least 2000 µM? Consider U46C C71U
*A* criterion not met

*Q* Is KM at least 2000 µM? Consider C11A G44U G59U
*A* criterion not met

*Q* Is KM at least 2000 µM? Consider G29U A39G
*A* criterion met

*Q* Is KM at least 2000 µM? Consider A6C A39G
*A* criterion not met

*Q* Is KM at least 2000 µM? Consider A6C U31G
*A* criterion met

*Q* Is KM at least 2000 µM? Consider A12U U31A
*A* criterion met

*Q* Is KM at least 2000 µM? Consider A52G C67G
*A* criterion not met

*Q* Is KM at least 2000 µM? Consider U30G U54C
*A* criterion met

*Q* Is KM at least 2000 µM? Consider A33G C67U
*A* criterion not met

*Q* Is KM at least 2000 µM? Consider C16A A53C
*A* criterion not met

*Q* Is KM at least 2000 µM? Consider U65G G66U
*A* criterion met

*Q* Is KM at least 2000 µM? Consider A52G C71G
*A* criterion not met

*Q* Is KM at least 2000 µM? Consider A14G G32A
*A* criterion met

*Q* Is KM at least 2000 µM? Consider C16U
*A* criterion met

*Q* Is KM at least 2000 µM? Consider U49G A52U
*A* criterion met

*Q* Is KM at least 2000 µM? Consider C16U A42U
*A* criterion not met

*Q* Is KM at least 2000 µM? Consider C19A C67G
*A* criterion not met

*Q* Is KM at least 2000 µM? Consider G37A G66A
*A* criterion met

*Q* Is KM at least 2000 µM? Consider A53G G59A
*A* criterion met

*Q* Is KM at least 2000 µM? Consider C16G U45G
*A* criterion met

*Q* Is KM at least 2000 µM? Consider A15G A64U
*A* criterion met

*Q* Is KM at least 2000 µM? Consider G29A G41U
*A* criterion not met

*Q* Is KM at least 2000 µM? Consider A42U A53C
*A* criterion met

*Q* Is KM at least 2000 µM? Consider C11A A14G U65G
*A* criterion not met

*Q* Is KM at least 2000 µM? Consider A12C U47A
*A* criterion not met

*Q* Is KM at least 2000 µM? Consider G13A U54G
*A* criterion met

*Q* Is KM at least 2000 µM? Consider G29U C70G
*A* criterion not met

*Q* Is KM at least 2000 µM? Consider G13U A53G
*A* criterion met

*Q* Is KM at least 2000 µM? Consider G37A G66U
*A* criterion met

*Q* Is KM at least 2000 µM? Consider A39C U46C
*A* criterion met

*Q* Is KM at least 2000 µM? Consider A39C A42C
*A* criterion not met

*Q* Is KM at least 2000 µM? Consider C10G G59U
*A* criterion not met

*Q* Is KM at least 2000 µM? Consider U30C U55G
*A* criterion not met

*Q* Is KM at least 2000 µM? Consider A6C U56G
*A* criterion met

*Q* Is KM at least 2000 µM? Consider U30C U56A
*A* criterion met

*Q* Is KM at least 2000 µM? Consider U30C C71U
*A* criterion not met

*Q* Is KM at least 2000 µM? Consider G41A U47A
*A* criterion not met

*Q* Is KM at least 2000 µM? Consider C19A
*A* criterion not met

*Q* Is KM at least 2000 µM? Consider A12U G66U
*A* criterion not met

*Q* Is KM at least 2000 µM? Consider A6U A53G
*A* criterion met

*Q* Is KM at least 2000 µM? Consider U45C C67U
*A* criterion met

*Q* Is KM at least 2000 µM? Consider C34A G51U
*A* criterion met

*Q* Is KM at least 2000 µM? Consider C50A
*A* criterion not met

*Q* Is KM at least 2000 µM? Consider C16A G51A
*A* criterion not met

*Q* Is KM at least 2000 µM? Consider A52U C71U
*A* criterion met

*Q* Is KM at least 2000 µM? Consider G41U A64G
*A* criterion met

*Q* Is KM at least 2000 µM? Consider G41A C71U
*A* criterion not met

*Q* Is KM at least 2000 µM? Consider A12C A15U
*A* criterion not met

*Q* Is KM at least 2000 µM? Consider A12U A14C
*A* criterion not met

*Q* Is KM at least 2000 µM? Consider G32U A53G
*A* criterion met

*Q* Is KM at least 2000 µM? Consider A14C A39C
*A* criterion met

*Q* Is KM at least 2000 µM? Consider A12U
*A* criterion not met

*Q* Is KM at least 2000 µM? Consider U31C G32A
*A* criterion met

*Q* Is KM at least 2000 µM? Consider A39G U55G
*A* criterion not met

*Q* Is KM at least 2000 µM? Consider U47C U55G
*A* criterion not met

*Q* Is KM at least 2000 µM? Consider U65C
*A* criterion not met

*Q* Is KM at least 2000 µM? Consider G44U A53G
*A* criterion not met

*Q* Is KM at least 2000 µM? Consider C11G G43A
*A* criterion not met

*Q* Is KM at least 2000 µM? Consider C34A G51U C67U
*A* criterion met

*Q* Is KM at least 2000 µM? Consider U45C U54C
*A* criterion met

*Q* Is KM at least 2000 µM? Consider G29A A39U A42U
*A* criterion met

*Q* Is KM at least 2000 µM? Consider G32A C67G
*A* criterion not met

*Q* Is KM at least 2000 µM? Consider A12U A15U
*A* criterion not met

*Q* Is KM at least 2000 µM? Consider G9C C61G
*A* criterion met

*Q* Is KM at least 2000 µM? Consider U47G U55C
*A* criterion not met

*Q* Is KM at least 2000 µM? Consider U30A U65C
*A* criterion met

*Q* Is KM at least 2000 µM? Consider A39C U45A
*A* criterion not met

*Q* Is KM at least 2000 µM? Consider C11U U46G
*A* criterion met

*Q* Is KM at least 2000 µM? Consider G29C A53G
*A* criterion met

*Q* Is KM at least 2000 µM? Consider C11A U45A
*A* criterion met

*Q* Is KM at least 2000 µM? Consider A6U A39U
*A* criterion met

*Q* Is KM at least 2000 µM? Consider C16A U65C
*A* criterion not met
